Experiment: yeast display, Sf9 membrane polyspecificity reagent, FACS + sequencing; frameworks hold sequencing errors
QUANTITY NAME: polyreactivity (PSR sort gate)

Please review the following examples before continuing.
RESIDUE STRING | polyreactivity (PSR sort gate)
QVQLVESGGGLVQAGGSLRLSCAASGRTFGFNVMGWYRQAPGKERELVAAISWSGGSTYYADSVKGRFTISRENAKNTVYLQMNSLKPEDTAVYSCNKRYVHRYGYWGQGTQVTVTS | low polyreactivity
QVQLVESGGRLVQAGGSLRLICAASGLIFRAYAMGWYIQAPGKERELVAAISRNGGSTYYADSVKGRFTISRDNAKNTVYLQMNILKPEDTAGYYCNKVSRSSVYQDYYYWGQGTQVTVSS | high polyreactivity
QVQLVESGGGLVQAGGSLRLSCAASGRTFTFYAMGWYRQAPGKERELVATISYSGGRTYYADSVKGRFTISRDNAKNTVYLQMNSLKPEDTAVYYCATSVSGPWWKLYYWGQGTQVTVSS | low polyreactivity
QVQLVESGGGLVQAGCSLRLSCAASGITFTEYAMGWSRQAPGKERELGATISYGGGITYYADSVKGRFTISRDNAKNTVYLQMNSLKPEDTAVYYCAADGLSQVQRGMDYWGQGTQVTVSS | low polyreactivity

The record that follows has no polyreactivity (PSR sort gate) shown yet.
Challenge: Name the recorded polyreactivity (PSR sort gate) for QVQLVESGGGLVQAGGSLRLSCAASGSIFVYNAMGWYRQAPGKERELVAAISWSGGRTYYADSVKGRFTISRDNAKNTVYIQMNSLKPEDTAVYYCAARGPTRVPYNYWGQGTQVTVSS .
Response given: high polyreactivity

====

Test: yeast display, Sf9 membrane polyspecificity reagent, FACS + sequencing; frameworks hold sequencing errors
QUANTITY NAME: polyreactivity (PSR sort gate)

Please review the following examples before continuing.
RESIDUE STRING | OBSERVED
QVNLVYSAGGLVQAGGILRLSCTASGCTFYYNAMGWYRQEPGKVREVVARISRSGGSTYEDSVKGRFTISRDNAKNTVYLPMNSLKPEDTAVYYCNADAYGTPEFTSYAVSYDLWGQGTQVTVSS | low polyreactivity
QVQLVESGGGLVQAGGSLRLSCAASGLIFSYYAMGWYRQAPGKEMELVAAITSDDSTYYADSVKGRFTISRDNAKNTVYLQINSLKPEDTAVYYCAARYTMYDTGESSRTYTGFNYWGQGTQVTVSS | low polyreactivity
QGQLVESGGGLVQAGGSLRLSCAASGFTFTSNAMGWYRQAPGQERELVAVISTRGGSTFYADSGKGRFTISRDNAKNTVYLQMNSLKPEDTAVYYCAADSTDYRWTAYYWGQGTQVTVSS | high polyreactivity
QVQLVESGGGLVQAGGSLRLSCAASGIIFYFYAMGWYRQAPGKERELVAAISRGGSTKYADSVKGRFTISRDNAKNTVYLQMNSLKPEDTAVYYCAATRRRPSEYYYWGQGTQVTVSS | high polyreactivity

The record that follows has no polyreactivity (PSR sort gate) shown yet.
Challenge: Name the recorded polyreactivity (PSR sort gate) for QVQLVESGGGLVQAGGSLRLSCAASGRICKRNAMGWYRQAPGKERELVAAITWSGGSTYYADSVKGRFTISRDNAKNTVYLQMNSLKPEDTAVYYCAALRVQGDYDYWGQGTQVTVSS .
Response given: high polyreactivity

====

Assay: yeast display, Sf9 membrane polyspecificity reagent, FACS + sequencing; frameworks hold sequencing errors
QUANTITY NAME: polyreactivity (PSR sort gate)

Please review the following examples before continuing.
RESIDUE STRING | OBSERVED
QVQLVESGGGLVQAGGSLRLSCAASGNTFAQNTMGWYRQAPGKEREFVAGITFSGTGTYYADSVKGRFTISRDNAKNTVYLQMNSLKPEDTAVYYCAADTPTPGLFYWFYPHRGYWGQGTQVTVSS | low polyreactivity
QVQLVESGGGLVQAGGSLRLSCAASGFFFEINAMGWYRQAPGKERELVAVITNSGGSTYYADSVKGRFTISRDNAKNTVYLQMNSLKPEDTAVYYCAADAVHYTNDWYDYWGQGTQVTVSS | low polyreactivity
QVQLVETGGGLVQAGGSLRLSCAPSGSIFGLNAMGWYRQAPGKERELVAAINTDGDTYYADSVKGRFTISRDNAKNTVYLQMNSLIPEDTAVFYCAADYYWDPFDSNFGHVPQEYESWGQGTQVTVSS | low polyreactivity
QVHLVESGGGLLQAGGSLRLSCAASGITFSRNVMGWYIQAPGKERELVAAISTSGGSTYYADSVKGRFTISRDNAKNTVYLQMNSLKPEDTAGYYCAKDITVTYPGLDYDYWGQGTQVTVSS | low polyreactivity
QVQLVESGGGVVQAGGSLRLSCAASGRICAYYTMGWYRQAPGKERELVAAINQSGGSTYYADSVKGRFTISRDNAKYTEYLQMNSLKPEDTAVFYCAAQPTIYSTPHPEYNYWGQGTQVNVSS | low polyreactivity
QVQLVESGGGLVQAGGSLRLSCAASGRTFRLNAMGWYRQAPGKERELVAGIRVRAGTTYYADSVKGRFTISRDNAKNTVYLQRNSLKPEDTAVYYCAAESYSRSRKYDYWGQGTQVTVSS | high polyreactivity

The record that follows has no polyreactivity (PSR sort gate) shown yet.
Challenge: Name the recorded polyreactivity (PSR sort gate) for QVQRVDSGGGLVQAGGSLRLTCAASGSTFDKYAMGWYRQAPGKERELVAAISLSGGSTYYADSVKGRFTISRDNAKNTVYLQMNSLKPEDTAVYYCNTPPSRYVRYGIYRYDYWGQGTQVTVSS .
Response given: high polyreactivity

====

Assay: yeast display, Sf9 membrane polyspecificity reagent, FACS + sequencing; frameworks hold sequencing errors
QUANTITY NAME: polyreactivity (PSR sort gate)

Please review the following examples before continuing.
RESIDUE STRING | polyreactivity (PSR sort gate)
QVQLVESGGGLVQAGGSLRLSCAASGSTFWSYAMGWYRQAPGKERELVASISRRGGSTSYADSVKGRFTISRDNAKNTVYLQMNSLKPEDTAVYYCAARLLRTTKPRSGYGYWGQGTQVTVSS | high polyreactivity
QVQLVESGGGLVQAGGCLRKSCAASGFTFFSYARGWSRQAPGKERELVAGINSSGGSTNYADSVKGRFTISRDNAKNTVYLLMNSLKPEDTAVYYCNADLRSEYDYWGQGTQVTVSS | low polyreactivity
QVQLVESGGGLVQAGGSLRLSCAASGSIFDSYVMGWYRHAPGKERELVAAITYSGGSTYADSVKGRFTISRDNAQNTVDLQMNSLKPEDTAVYYCAAASSFYLYLLEDYWGQGTQVTVSS | low polyreactivity
QVQLVESGGGLVQAGASLRLSCAASGSTFHSYAMGWYRQAPGKERELVAAISTSGGSTYYADSVKGRFTISRDNAKNTVYLQMNSLKPEDTAVYYCAAYSISSRMNYWGQGTQVTVSS | high polyreactivity
QVQLVESGGGLVQAGGSLRLSCAASGRTFEHYAMGWYRQAPGKERELVAAITWSGVSTYYADSVKGRFTISRDNAKNTVYVQMNSLKPEDTAVYYCAANWLGYGFDYWGQGTQVTVSS | low polyreactivity

The record that follows has no polyreactivity (PSR sort gate) shown yet.
Challenge: Name the recorded polyreactivity (PSR sort gate) for QVQLVDSGGGLVQAGGSLRLSCAASGSILYPYAMGWDRQAPGKEREFVAAITYGGGRTYYADSVKGRFTISRDNAKNTVYLQMNSLKPEDTAVYYCAAKSVYAGRRRIYYLWYDYWGQGTQVTVSS .
Response given: high polyreactivity

====

Experiment: yeast display, Sf9 membrane polyspecificity reagent, FACS + sequencing; frameworks hold sequencing errors
QUANTITY NAME: polyreactivity (PSR sort gate)

RESIDUE STRING | polyreactivity (PSR sort gate)
QVQLVESGGGLVHAGGSLRLSCAASGSIFGRYVMGWYRQAPGKERELVAAITRSGGSTYYADSVKGRFTISRDNAKNTVYLQMNSLKPEDTAVYYCNADVNFIDDDYWGHGTQVTVSS | low polyreactivity
QVQLVESGGGLVQAGGSLRLSCAASGITFNSYAMGWYRQAPGKERELVAAITLTGGTTYYADSVKGRFTISRDNAKNTVYLQMNSLKPEDTAVYYCAAQYWWWSRFEYDSWGQGTQVTVSS | low polyreactivity
QVQLVESGGGLVQAGGSLSLSCAASGSNFVKNAMGWYRPAPGKERELVATISTGGSTYYADSVKGRFTISRDNAKNTVYLQMNSLKPEDTAVYYCATDFYPRFLLRSYRPYYYWGQGTQVTLSS | low polyreactivity
QVQLVESGGGLVQAGGSLRLICAASGYIFAYNTMGWYRQAPGKERELVAAISRSGGSTYYADSVKGRFTISRDNAKNTVYLQMNSLKPEDTAVYSCAARYAPLDFRFDYWGQGTQVTVSS | high polyreactivity

The record that follows has no polyreactivity (PSR sort gate) shown yet.
Challenge: Name the recorded polyreactivity (PSR sort gate) for QVQLVESGGGLVQAGGSLRLSCAASGSTFFKNTMGWYRQAPGKEREFVAAIRWSTSRTYYADSVKGRFTISRDNAKYTVYLQMTSLKPEDTAVYYCNAGTSLSRRYPEDYYWGQGTQVTVSS .
Response given: high polyreactivity

Each recorded value in this set is attributed to the nanobody polyreactivity screen of Harvey et al. (2022).
